Each record here notes measured selectivity ratio.
assay: Selectivity index, ratio of MLC50 for African green monkey BGM cells to IC50 for chloroquine and sulfadoxine-resistant and mefloquine-sensitive Plasmodium falciparum W2; type: toxicity, cell-based; settings: read-out: Selectivity Index

smiles.repr	relation.symbol	selectivity ratio
O=S(=O)(NCCNc1ccnc2cc(Cl)ccc12)c1ccccc1	=	74.7
O=S(=O)(NCCCNc1ccnc2cc(Cl)ccc12)c1ccc(Br)cc1	=	75.8
O=S(=O)(NCCCCNc1ccnc2cc(Cl)ccc12)c1ccc(Cl)cc1	=	1100
O=S(=O)(NCCNc1ccnc2cc(Cl)ccc12)c1ccc(Br)cc1	=	73.3
O=S(=O)(NCCCCNc1ccnc2cc(Cl)ccc12)c1ccccc1	>	642
Cc1ccc(S(=O)(=O)NCCCNc2ccnc3cc(Cl)ccc23)cc1	=	339

====

test: Cytotoxicity against African green monkey BGM cells incubated for 18 hrs by neutral red assay; type: cell-based; conditions: chlorocebus aethiops, read-out: MLC50
assay.readout: CC50 at 18 h (µM)

molecule	relation.symbol	observed.measurement
Cc1ccc(S(=O)(=O)NCCCCNc2ccnc3cc(Cl)ccc23)cc1	=	107
O=S(=O)(NCCCNc1ccnc2cc(Cl)ccc12)c1ccccc1	=	275
O=S(=O)(NCCCCNc1ccnc2cc(Cl)ccc12)c1ccccc1	>	257
O=S(=O)(NCCCCNc1ccnc2cc(Cl)ccc12)c1ccc(Br)cc1	=	14.9
O=S(=O)(NCCCNc1ccnc2cc(Cl)ccc12)c1ccc(Br)cc1	=	22
O=S(=O)(NCCNc1ccnc2cc(Cl)ccc12)c1ccc(Cl)cc1	=	116
O=S(=O)(NCCCNc1ccnc2cc(Cl)ccc12)c1ccc(F)cc1	=	339
O=S(=O)(NCCCNc1ccnc2cc(Cl)ccc12)c1ccc(Cl)cc1	=	103
O=S(=O)(NCCNc1ccnc2cc(Cl)ccc12)c1ccc(Br)cc1	=	88.8
Cc1ccc(S(=O)(=O)NCCNc2ccnc3cc(Cl)ccc23)cc1	=	125
O=S(=O)(NCCCCNc1ccnc2cc(Cl)ccc12)c1ccc(Cl)cc1	=	99.2
O=S(=O)(NCCNc1ccnc2cc(Cl)ccc12)c1ccc(F)cc1	=	203
O=S(=O)(NCCCCNc1ccnc2cc(Cl)ccc12)c1ccc(F)cc1	=	155
Cc1ccc(S(=O)(=O)NCCCNc2ccnc3cc(Cl)ccc23)cc1	=	95
O=S(=O)(NCCNc1ccnc2cc(Cl)ccc12)c1ccccc1	=	122
COc1ncnc(NS(=O)(=O)c2ccc(N)cc2)c1OC [SULFADOXINE]	>	310

====

experiment: Selectivity index, ratio of MLC50 for African green monkey BGM cells to IC50 for chloroquine and sulfadoxine-resistant and mefloquine-sensitive Plasmodium falciparum W2; type: toxicity, cell-based; settings: read-out: Selectivity Index
Give 1 when the value for selectivity ratio is at least 200. Give 0 when it is less.

smiles.repr	assigned.class
O=S(=O)(NCCCCNc1ccnc2cc(Cl)ccc12)c1ccc(F)cc1	1
O=S(=O)(NCCNc1ccnc2cc(Cl)ccc12)c1ccc(Cl)cc1	0
Cc1ccc(S(=O)(=O)NCCNc2ccnc3cc(Cl)ccc23)cc1	1
O=S(=O)(NCCCNc1ccnc2cc(Cl)ccc12)c1ccccc1	1
O=S(=O)(NCCNc1ccnc2cc(Cl)ccc12)c1ccc(F)cc1	0
O=S(=O)(NCCCCNc1ccnc2cc(Cl)ccc12)c1ccc(Br)cc1	0
Cc1ccc(S(=O)(=O)NCCCCNc2ccnc3cc(Cl)ccc23)cc1	1
O=S(=O)(NCCCNc1ccnc2cc(Cl)ccc12)c1ccc(F)cc1	1
O=S(=O)(NCCCNc1ccnc2cc(Cl)ccc12)c1ccc(Cl)cc1	1
